Experiment: UV-Vis absorption and fluorescence spectroscopy (spectral properties in aqueous media / PBS buffer)
Type: physicochemical
Conditions: aqueous media; relative quantum yield, TMR and SiTMR as reference
Kindly supply the reported ϕ values for the records listed here.
Give bare numbers.

Sample answers from the record:
C#Cc1cccc(Nc2ncnc3ccc(NC(=O)CCNC(=O)c4ccc(C5=C6C=C/C(=[N+](/C)CCCS(=O)(=O)[O-])C=C6[Si](C)(C)c6cc(N(C)C)ccc65)c(C)c4)cc23)c1 [OF650Erl(T)]; 0.16
Cc1ccccc1-c1c2cc/c(=[N+](/C)CCCS(=O)(=O)[O-])cc-2oc2cc(N(C)C)ccc12 [OF550]; 0.61
CN(C)c1ccc2c(c1)[Si](C)(C)C1=CC(=[N+](C)C)C=CC1=C2c1ccccc1C(=O)O [SiR]; 0.35

Documented ϕ of Cc1cc(C(=O)O)ccc1-c1c2cc/c(=[N+](/C)CCCS(=O)(=O)[O-])cc-2oc2cc(N(C)C)ccc12 [OF550COOH] : 0.69
